assay: Binding affinity to HT3AGTT sequence of bulge DNA by fluorescence quenching
MEASURE NAME: Kd (nM)

A selection of reference data follows.
CN[C@H]1[C@@H](O[C@H]2c3cc4ccccc4cc3[C@H]3[C@@H]2C=C[C@]32C(=O)C=Cc3ccc(OC)cc32)O[C@H](C)[C@H](O)[C@@H]1O
80
CN[C@H]1[C@H](O[C@@H]2c3cc4c(cc3[C@@H]3[C@H]2OC(=O)[C@@]32C(=O)C=Cc3c(C)cc(OC)cc32)[C@@](O)([C@H]2COC(=O)O2)C=C4)O[C@@H](C)[C@H](O)[C@@H]1O
33

[A] CN[C@H]1[C@H](O[C@@H]2c3cc4ccccc4cc3[C@@H]3[C@H]2C=C[C@@]32C(=O)C=Cc3ccc(OC)cc32)O[C@H](C)[C@H](O)[C@@H]1O
[B] CN[C@H]1[C@H](O[C@H]2c3cc4ccccc4cc3[C@H]3[C@@H]2C=C[C@]32C(=O)C=Cc3ccc(OC)cc32)O[C@H](C)[C@H](O)[C@@H]1O
[C] CN[C@H]1[C@@H](O[C@@H]2c3cc4ccccc4cc3[C@@H]3[C@H]2C=C[C@@]32C(=O)C=Cc3ccc(OC)cc32)O[C@H](C)[C@H](O)[C@@H]1O
Incoming: Provide the items ranked by increasing Kd. # output: labels, in the requested order
Outgoing: C, B, A

----------
assay: Binding affinity to HT3AGT sequence of bulge DNA by fluorescence quenching
pKd: −log10 of the molar value.
MEASURE NAME: pKd

[P] CN[C@H]1[C@@H](O[C@@H]2c3cc4ccccc4cc3[C@@H]3[C@H]2C=C[C@@]32C(=O)C=Cc3ccc(OC)cc32)O[C@H](C)[C@H](O)[C@@H]1O
[Q] CN[C@H]1[C@@H](O[C@H]2c3cc4ccccc4cc3[C@H]3[C@@H]2C=C[C@]32C(=O)C=Cc3ccc(OC)cc32)O[C@H](C)[C@H](O)[C@@H]1O
[R] CN[C@H]1[C@H](O[C@H]2c3cc4ccccc4cc3[C@H]3[C@@H]2C=C[C@]32C(=O)C=Cc3ccc(OC)cc32)O[C@H](C)[C@H](O)[C@@H]1O
Incoming: Highest pKd first, then in falling order down to the smallest. # output: labels, in the requested order
Outgoing: P, Q, R

[1] CN[C@H]1[C@H](O[C@@H]2c3cc4ccccc4cc3[C@@H]3[C@H]2C=C[C@@]32C(=O)C=Cc3ccc(OC)cc32)O[C@H](C)[C@H](O)[C@@H]1O
[2] CN[C@H]1[C@H](O[C@@H]2c3cc4c(cc3[C@@H]3[C@H]2OC(=O)[C@@]32C(=O)C=Cc3c(C)cc(OC)cc32)[C@@](O)([C@H]2COC(=O)O2)C=C4)O[C@@H](C)[C@H](O)[C@@H]1O
Incoming: Dear colleague, could you let me know whether 1 or 2 has the lower recorded pKd? Thanks. Pick one and reply with its label.
Outgoing: 2
(2: 4.69, 1: 5.26)

----------
assay: Binding affinity to DA12:BA14 sequence of bulge DNA by fluorescence quenching
MEASURE NAME: Kd (nM)

A selection of reference data follows.
CN[C@H]1[C@@H](O[C@H]2c3cc4ccccc4cc3[C@H]3[C@@H]2C=C[C@]32C(=O)C=Cc3ccc(OC)cc32)O[C@H](C)[C@H](O)[C@@H]1O
600
CN[C@H]1[C@H](O[C@H]2c3cc4ccccc4cc3[C@H]3[C@@H]2C=C[C@]32C(=O)C=Cc3ccc(OC)cc32)O[C@H](C)[C@H](O)[C@@H]1O
400

[I] CN[C@H]1[C@H](O[C@@H]2c3cc4c(cc3[C@@H]3[C@H]2OC(=O)[C@@]32C(=O)C=Cc3c(C)cc(OC)cc32)[C@@](O)([C@H]2COC(=O)O2)C=C4)O[C@@H](C)[C@H](O)[C@@H]1O
[II] CN[C@H]1[C@H](O[C@@H]2c3cc4ccccc4cc3[C@@H]3[C@H]2C=C[C@@]32C(=O)C=Cc3ccc(OC)cc32)O[C@H](C)[C@H](O)[C@@H]1O
[III] CN[C@H]1[C@@H](O[C@@H]2c3cc4ccccc4cc3[C@@H]3[C@H]2C=C[C@@]32C(=O)C=Cc3ccc(OC)cc32)O[C@H](C)[C@H](O)[C@@H]1O
Incoming: Provide the items ranked by increasing Kd. # output: labels, in the requested order
Outgoing: II, III, I
(II: 430 nM, III: 800 nM, I: 2180 nM)

----------
assay: Binding affinity to HT3AT sequence of bulge DNA by fluorescence quenching
pKd: −log10 of the molar value.
MEASURE NAME: pKd

CN[C@H]1[C@@H](O[C@H]2c3cc4ccccc4cc3[C@H]3[C@@H]2C=C[C@]32C(=O)C=Cc3ccc(OC)cc32)O[C@H](C)[C@H](O)[C@@H]1O
5.00
CN[C@H]1[C@@H](O[C@@H]2c3cc4ccccc4cc3[C@@H]3[C@H]2C=C[C@@]32C(=O)C=Cc3ccc(OC)cc32)O[C@H](C)[C@H](O)[C@@H]1O
4.89
CN[C@H]1[C@H](O[C@@H]2c3cc4ccccc4cc3[C@@H]3[C@H]2C=C[C@@]32C(=O)C=Cc3ccc(OC)cc32)O[C@H](C)[C@H](O)[C@@H]1O
5.04
CN[C@H]1[C@H](O[C@H]2c3cc4ccccc4cc3[C@H]3[C@@H]2C=C[C@]32C(=O)C=Cc3ccc(OC)cc32)O[C@H](C)[C@H](O)[C@@H]1O
5.09
CN[C@H]1[C@H](O[C@@H]2c3cc4c(cc3[C@@H]3[C@H]2OC(=O)[C@@]32C(=O)C=Cc3c(C)cc(OC)cc32)[C@@](O)([C@H]2COC(=O)O2)C=C4)O[C@@H](C)[C@H](O)[C@@H]1O
5.00

----------
assay: Binding affinity to HT3AGTA sequence of bulge DNA by fluorescence quenching
pKd: −log10 of the molar value.
MEASURE NAME: pKd

[I] CN[C@H]1[C@H](O[C@@H]2c3cc4c(cc3[C@@H]3[C@H]2OC(=O)[C@@]32C(=O)C=Cc3c(C)cc(OC)cc32)[C@@](O)([C@H]2COC(=O)O2)C=C4)O[C@@H](C)[C@H](O)[C@@H]1O
[II] CN[C@H]1[C@@H](O[C@@H]2c3cc4ccccc4cc3[C@@H]3[C@H]2C=C[C@@]32C(=O)C=Cc3ccc(OC)cc32)O[C@H](C)[C@H](O)[C@@H]1O
Incoming: Could you point out whether the larger pKd belongs to I or to II ? Pick one and reply with its label.
Outgoing: II
(II: 5.85, I: 4.90)

[I] CN[C@H]1[C@H](O[C@@H]2c3cc4ccccc4cc3[C@@H]3[C@H]2C=C[C@@]32C(=O)C=Cc3ccc(OC)cc32)O[C@H](C)[C@H](O)[C@@H]1O
[II] CN[C@H]1[C@@H](O[C@H]2c3cc4ccccc4cc3[C@H]3[C@@H]2C=C[C@]32C(=O)C=Cc3ccc(OC)cc32)O[C@H](C)[C@H](O)[C@@H]1O
Incoming: Could you point out whether the larger pKd belongs to I or to II ? Pick one and reply with its label.
Outgoing: II

----------
test: Binding affinity to HT3AGCTT sequence of bulge DNA by fluorescence quenching
pKd: −log10 of the molar value.
MEASURE NAME: pKd

A selection of reference data follows.
CN[C@H]1[C@H](O[C@H]2c3cc4ccccc4cc3[C@H]3[C@@H]2C=C[C@]32C(=O)C=Cc3ccc(OC)cc32)O[C@H](C)[C@H](O)[C@@H]1O
5.74
CN[C@H]1[C@H](O[C@@H]2c3cc4ccccc4cc3[C@@H]3[C@H]2C=C[C@@]32C(=O)C=Cc3ccc(OC)cc32)O[C@H](C)[C@H](O)[C@@H]1O
5.71
CN[C@H]1[C@@H](O[C@@H]2c3cc4ccccc4cc3[C@@H]3[C@H]2C=C[C@@]32C(=O)C=Cc3ccc(OC)cc32)O[C@H](C)[C@H](O)[C@@H]1O
5.77

[a] CN[C@H]1[C@@H](O[C@H]2c3cc4ccccc4cc3[C@H]3[C@@H]2C=C[C@]32C(=O)C=Cc3ccc(OC)cc32)O[C@H](C)[C@H](O)[C@@H]1O
[b] CN[C@H]1[C@H](O[C@@H]2c3cc4c(cc3[C@@H]3[C@H]2OC(=O)[C@@]32C(=O)C=Cc3c(C)cc(OC)cc32)[C@@](O)([C@H]2COC(=O)O2)C=C4)O[C@@H](C)[C@H](O)[C@@H]1O
Incoming: Dear colleague, could you let me know whether a or b has the lower recorded pKd? Thanks. Pick one and reply with its label.
Outgoing: a

----------
target: HT4AGTT bulged DNA; experiment: Binding affinity to HT4AGTT sequence of bulge DNA by fluorescence quenching
MEASURE NAME: Kd (nM)

A selection of reference data follows.
CN[C@H]1[C@H](O[C@@H]2c3cc4c(cc3[C@@H]3[C@H]2OC(=O)[C@@]32C(=O)C=Cc3c(C)cc(OC)cc32)[C@@](O)([C@H]2COC(=O)O2)C=C4)O[C@@H](C)[C@H](O)[C@@H]1O
26
CN[C@H]1[C@@H](O[C@H]2c3cc4ccccc4cc3[C@H]3[C@@H]2C=C[C@]32C(=O)C=Cc3ccc(OC)cc32)O[C@H](C)[C@H](O)[C@@H]1O
110
CN[C@H]1[C@H](O[C@H]2c3cc4ccccc4cc3[C@H]3[C@@H]2C=C[C@]32C(=O)C=Cc3ccc(OC)cc32)O[C@H](C)[C@H](O)[C@@H]1O
190

[1] CN[C@H]1[C@H](O[C@@H]2c3cc4ccccc4cc3[C@@H]3[C@H]2C=C[C@@]32C(=O)C=Cc3ccc(OC)cc32)O[C@H](C)[C@H](O)[C@@H]1O
[2] CN[C@H]1[C@@H](O[C@@H]2c3cc4ccccc4cc3[C@@H]3[C@H]2C=C[C@@]32C(=O)C=Cc3ccc(OC)cc32)O[C@H](C)[C@H](O)[C@@H]1O
Incoming: Dear colleague, could you let me know whether 1 or 2 has the lower recorded Kd? Thanks. Pick one and reply with its label.
Outgoing: 2
(2: 240 nM, 1: 1500 nM)

Origin of values: ChEMBL document CHEMBL1152786
